Exercise: for every item that follows, state its recorded Binding Score.
- target of assay: T1, Soluble CD28-Ig (human, UniProt P10747 19-152, biotin-conjugated (NHS-biotin) in the labelled-ligand FACS assays)
- T1 construct: extracellular domain; Bought from R&D Systems; also called sCD28-Ig; CD28-Ig Fc; not shown: Fc portion of human IgG1
- protocol details: two-colour FACS profile on transfected cells; score of preference for CD28-Ig over CTLA-4-Ig vs WT hB7-1
Reply with the value as a number alone.

Request: Any idea what Binding Score was measured for Round 2 CD28B2-8 (ligand) ITPKSVTKRVKETVMLSCDYNTSTEELTSLRIYWQKDSKMVLAILPGKVQVWPEYKNRTITDMNDNPRIVILALRLSDKGTYTCVIQKPVLKGAYKLEHLASVRLMIRADFPVPTINDLGNPSPNIRRLICSTSGGFPRPHLYWLENGEELNATNTTVSQDPGTELYMISSELDFNVTNNHSIVCLIKYGELSVSQIFPWSKPKQEPPIDQLPFWVIIPVSGALVLTAVVLYCLACRHVARWKRTRRNEETVGTERLSPIYLGSAQSSG ?
Response: 1

Request: Any idea what Binding Score was measured for Round 2 CD28H11-3 (ligand) ITPKSVTKRVKETVMLSCDYNTSTEELTSLRIYWQKDSKMVLAILPGKVQVWPEYKNRTITDMNDNPRIVILALRLSDSGTYTCVIQKPVLKGAYKLEHLASVRLMIRADFPVPTINDLGNPSPNIRRLICSTSGGFPRPHLYWLENGEELNATNTTLSQDPETKLYMISSELDFNVTNNHSIVCLIKYGELSVSQIFPWSKPKQEPPIDQLPFWVIIPVSGALVLTAAVLYCLACRHVARWKRTRRNEETVGTERLSPIYLGSAQSSG ?
Response: 1
